The measured values listed here are drawn from PubChem BioAssay.

Assay: changes in parasitized red cell lysis, either direction – P. falciparum Indochina, OD700, 3 h, PSAC antagonist project, primary screen (AID 1156)
Conditions: P. falciparum-infected erythrocytes, osmotic lysis, higher = more signal, called active from +8 up or from −8 down
Tag: fulfilled if measured z-score is not below 0.04, not fulfilled if it is.

Here's what some known entries look like.
{"Molecule": "NC(=O)[C@@H]1[C@H]2C(=O)O[C@H](c3ccccc3)[C@H](c3ccccc3)N2[C@H](c2ccc(OCCO)cc2)[C@@]12C(=O)Nc1ccc(C#CC3=CCCCC3)cc12", "Assigned Class": "not fulfilled"}
{"Molecule": "Cc1ccc(C2C3C(=O)CC4C(=O)N(c5ccccc5)C(=O)C4C3CN2S(=O)(=O)c2ccc(C)cc2)cc1 (centres undefined)", "Assigned Class": "fulfilled"}
{"Molecule": "CN(C)CCCCCCNC(=O)[C@@H]1C[C@@H]2C(=O)N3CCC[C@H]3C(=O)N2[C@@H]1c1ccc(O)cc1", "Assigned Class": "fulfilled"}
{"Molecule": "COC(=O)[C@@]1(Cc2ccccc2)[C@H]2c3cc(C(=O)N4CCCC4)n(Cc4c(CO)[nH]cc(C)c4=O)c3C[C@H]2CN1C(=O)c1ccccc1", "Assigned Class": "fulfilled"}
{"Molecule": "COc1ccc(NN2C(C(O)c3ccc(N(C)C)cc3)C=CC3C(=O)N(C4CCCCC4)C(=O)C32)cc1 (centres undefined)", "Assigned Class": "fulfilled"}

Next, consider the following molecule.
**Query** Determine whether measured z-score meets or exceeds 0.04 for `C=C(CCCC)/C(=C/C[C@@H](OC(C)=O)c1ccccc1OCCO)c1cc(C(=O)OC)ccc1OC`
**Result** fulfilled
